# target.or.system: T1, AtPRK6^LRR, extracellular LRR domain of AtPRK6 (residues 1-262) (Arabidopsis thaliana, UniProt Q3E991 27-262)
# T1 construct: signal peptide in the construct; leucine-rich repeat receptor kinase PRK6 of Arabidopsis thaliana, extracellular LRR domain, residues 1-262; Monomer by gel filtration; likely glycosylated (apparent 34 kDa); source: High Five insect cells (baculovirus), secreted, purified (Ni-NTA, size-exclusion chromatography); also co-expressed with AtLURE1 peptides; not shown: His6, C-terminal, kept
# T1 sequence (looked up): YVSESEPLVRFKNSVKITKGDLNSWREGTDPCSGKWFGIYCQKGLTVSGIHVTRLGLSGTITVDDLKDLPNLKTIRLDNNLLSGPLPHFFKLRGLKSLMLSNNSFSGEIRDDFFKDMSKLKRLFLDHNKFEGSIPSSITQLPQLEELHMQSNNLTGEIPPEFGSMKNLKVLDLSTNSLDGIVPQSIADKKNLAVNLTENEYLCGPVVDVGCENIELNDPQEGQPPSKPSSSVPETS
# assay.text: ITC; ITC200, 25 °C, 200 mM HEPES pH 7.0, 100 mM NaCl; about 0.9 mM AtLURE1.2 injected (20 x 2 μl) into 0.08 mM LRR protein in the cell
# measurement.setup: both partners purified
pKd: −log10 of the molar value.
property.measured: pKd

Sample AtLURE1.2, mature form (residues 20-90) (peptide, UniProt Q4VP08 20-90, looked up, AtLURE1.2, defensin-like cysteine-rich peptide of Arabidopsis thaliana, mature form, residues 20-90; Cloned in pFastBac-1 behind a modified N-terminal hemolin signal peptide and a 6xHis-SUMO tag; Likely glycosylated (apparent 14 kDa); also called AtLURE1.2 peptide; source: also co-expressed with AtPRK6^LRR for the crystallised complex; not shown: His6, N-terminal, cleaved; SUMO, N-terminal, …) TLINGSSDEERTYSFSPTTSPFDPRSLNQELKIGRIGYCFDCARACMRRGKYIRTCSFERKLCRCSISDIK — what was its pKd?
~5.51
